Measured values drawn from paper PMC9870305 for this set.

- TEST_NAME: Plasma drug exposure, individual non-compartmental analysis (days 0 and 28 pooled)
- Type: in vivo, human
- Design: concentration or dose not given beside the values
- STUDY_CONDITIONS: human, plasma, oral, 8-week cures (n=14); median (5th-95th percentile); read-out: Median AUClast
EXPERIMENTAL_ENDPOINT: AUC(0-t)
Don't forget the unit after the number, please.

Query :: Could you tell me which AUC(0-t) is on file for COC(=O)N[C@H](C(=O)N1CCC[C@H]1c1nc(-c2ccc(-c3ccc(-c4c[nH]c([C@@H]5CCCN5C(=O)[C@@H](NC(=O)OC)C(C)C)n4)cc3)cc2)c[nH]1)C(C)C ?
Result :: 14200 ng·h/mL

* * *

- TEST_NAME: Plasma pharmacokinetics, naïve pooled non-compartmental analysis (days 0 and 28)
- Type: in vivo, human
- STUDY_CONDITIONS: human, plasma, oral, Day 28; read-out: t1/2, terminal elimination half-life (converted)
EXPERIMENTAL_ENDPOINT: half-life (h)
Give bare numbers, in h.

Query :: Could you tell me which half-life is on file for COC(=O)N[C@H](C(=O)N1CCC[C@H]1c1nc(-c2ccc(-c3ccc(-c4c[nH]c([C@@H]5CCCN5C(=O)[C@@H](NC(=O)OC)C(C)C)n4)cc3)cc2)c[nH]1)C(C)C [Daclatasvir, daclatasvir] ?
Result :: 8.18

* * *

- TEST_NAME: Plasma pharmacokinetics, naïve pooled non-compartmental analysis (days 0 and 28)
- Assay type: in vivo, human
- STUDY_CONDITIONS: human, in vivo, po, Day 28; extrapolated to infinity
EXPERIMENTAL_ENDPOINT: AUC(0-inf) (ng·h/mL)
Give bare numbers, in ng·h/mL.

Query :: Could you tell me which AUC(0-inf) is on file for CC(C)OC(=O)[C@H](C)N[P@](=O)(OC[C@H]1O[C@@H](n2ccc(=O)[nH]c2=O)[C@](C)(F)[C@@H]1O)Oc1ccccc1 ?
Result :: 1600

* * *

- TEST_NAME: Plasma pharmacokinetics, naïve pooled non-compartmental analysis (days 0 and 28)
- Format: in vivo, human
- STUDY_CONDITIONS: human, oral; Day 28, plasma; read-out: Cmax
EXPERIMENTAL_ENDPOINT: Cmax (ng/mL)
Answers are plain numbers, in ng/mL.

Query :: Could you tell me which Cmax is on file for COC(=O)N[C@H](C(=O)N1CCC[C@H]1c1nc(-c2ccc(-c3ccc(-c4c[nH]c([C@@H]5CCCN5C(=O)[C@@H](NC(=O)OC)C(C)C)n4)cc3)cc2)c[nH]1)C(C)C [Daclatasvir, daclatasvir] ?
Result :: 1110

* * *

- TEST_NAME: Plasma pharmacokinetics, naïve pooled non-compartmental analysis (days 0 and 28)
- Format: in vivo, human
- Parameters: concentration or dose not given beside the values
- STUDY_CONDITIONS: human, plasma, po, Day 28; extrapolated to infinity
EXPERIMENTAL_ENDPOINT: AUC(0-inf) (ng·h/mL)
One number for each entry, in ng·h/mL.

Query :: Could you tell me which AUC(0-inf) is on file for COC(=O)N[C@H](C(=O)N1CCC[C@H]1c1nc(-c2ccc(-c3ccc(-c4c[nH]c([C@@H]5CCCN5C(=O)[C@@H](NC(=O)OC)C(C)C)n4)cc3)cc2)c[nH]1)C(C)C ?
Result :: 14400

* * *

- TEST_NAME: Plasma pharmacokinetics, naïve pooled non-compartmental analysis (days 0 and 28)
- Format: in vivo, human
- Design: concentration or dose not given beside the values
- STUDY_CONDITIONS: human, plasma, oral, Day 28; to 8 hours for SOF, 24 hours for GS-331007 and DCV
EXPERIMENTAL_ENDPOINT: AUC(0-t) (ng·h/mL)
Numbers only, in ng·h/mL.

Query :: Could you tell me which AUC(0-t) is on file for COC(=O)N[C@H](C(=O)N1CCC[C@H]1c1nc(-c2ccc(-c3ccc(-c4c[nH]c([C@@H]5CCCN5C(=O)[C@@H](NC(=O)OC)C(C)C)n4)cc3)cc2)c[nH]1)C(C)C ?
Result :: 12400

* * *

- TEST_NAME: Plasma drug exposure, individual non-compartmental analysis (days 0 and 28 pooled)
- Type: in vivo, human
- STUDY_CONDITIONS: human, in vivo, 4-week cures (n=15); median (5th-95th percentile); read-out: Median AUClast
EXPERIMENTAL_ENDPOINT: AUC(0-t) (ng·h/mL)
Give bare numbers, in ng·h/mL.

Query :: Could you tell me which AUC(0-t) is on file for CC(C)OC(=O)[C@H](C)N[P@](=O)(OC[C@H]1O[C@@H](n2ccc(=O)[nH]c2=O)[C@](C)(F)[C@@H]1O)Oc1ccccc1 [Sofosbuvir, sofosbuvir] ?
Result :: 2360

* * *

- TEST_NAME: Plasma pharmacokinetics, naïve pooled non-compartmental analysis (days 0 and 28)
- Format: in vivo, human
- STUDY_CONDITIONS: human, in vivo, Day 28; to 8 hours for SOF, 24 hours for GS-331007 and DCV
EXPERIMENTAL_ENDPOINT: AUC(0-t) (ng·h/mL)
Give bare numbers, in ng·h/mL.

Query :: Could you tell me which AUC(0-t) is on file for CC(C)OC(=O)[C@H](C)N[P@](=O)(OC[C@H]1O[C@@H](n2ccc(=O)[nH]c2=O)[C@](C)(F)[C@@H]1O)Oc1ccccc1 [Sofosbuvir, sofosbuvir] ?
Result :: 1600

* * *

- TEST_NAME: Plasma pharmacokinetics, naïve pooled non-compartmental analysis (days 0 and 28)
- Assay type: in vivo, human
- STUDY_CONDITIONS: human, in vivo, Day 0; read-out: t1/2, terminal elimination half-life (converted)
EXPERIMENTAL_ENDPOINT: half-life (min)
Answers are plain numbers, in min.

Query :: Could you tell me which half-life is on file for CC(C)OC(=O)[C@H](C)N[P@](=O)(OC[C@H]1O[C@@H](n2ccc(=O)[nH]c2=O)[C@](C)(F)[C@@H]1O)Oc1ccccc1 [Sofosbuvir, sofosbuvir] ?
Result :: 40.2
